test: Half life in Sprague-Dawley rat at 10 mg/kg, po; format: ADME, organism-based; details: in vivo
reported-endpoint: half-life
Field note: include the unit after the figure.

Give its half-life value. Item: COc1cc(OC)c2c(=O)[nH]c(-c3cccc(Cc4n[nH]c(=O)c5ccccc45)c3)nc2c1
3.33 h

* * *

target: Bromodomain-containing protein 4 (Homo sapiens); assay: Inhibition of BRD4 (unknown origin) at 1 uM relative to control
Label true for high-side inhibition (at or above 50%) and false for low-side inhibition (below it).

Take a look at these entries with their results.
Cc1cccc2nc(-c3ccc(Cc4n[nH]c(=O)c5ccccc45)c(F)c3)[nH]c(=O)c12 ... false
COc1cc(OC)c2nc(-c3ccc(Cc4n[nH]c(=O)c5ccccc45)c(C)c3)[nH]c(=O)c2c1 ... true
COc1cc(-c2nc3ccccc3c(=O)[nH]2)ccc1Cc1n[nH]c(=O)c2ccccc12 ... false
O=c1[nH]c(-c2ccc(Cc3n[nH]c(=O)c4ccccc34)cc2)nc2ccc(F)cc12 ... false
COc1cc(OC)c2nc(-c3cc(Cc4n[nH]c(=O)c5ccccc45)ccc3F)[nH]c(=O)c2c1 ... false
O=c1[nH]c(-c2ccc(Cc3n[nH]c(=O)c4ccccc34)cc2)nc2ccc(Br)cc12 ... false
COc1cc(OC)c2c(=O)[nH]c(-c3cc(C)c(OCCOc4ccccc4C(N)=O)c(C)c3)nc2c1 ... true
COc1cc(OC)c2c(=O)[nH]c(-c3ccc(Cc4n[nH]c(=O)c5ccccc45)c(F)c3)nc2c1 ... true

Can O=c1[nH]c(-c2cc(F)cc(Cc3n[nH]c(=O)c4ccccc34)c2)nc2ccc(Cl)cc12 be said to have inhibition at or above 50%?
true

Determine whether this compound has inhibition no lower than 50%: O=c1[nH]nc(Cc2cccc(-c3nc4cccc(Cl)c4c(=O)[nH]3)c2)c2ccccc12
true

* * *

biological target: Poly [ADP-ribose] polymerase 1 (Homo sapiens)
reported-endpoint: IC50 (nM)
The figure you give is taken to be in nM; do not add the unit.

Notebook entry, Poly [ADP-ribose] polymerase 1 (Homo sapiens) assay: IC50 of COc1cc(OC)c2c(=O)[nH]c(-c3cccc(Cc4n[nH]c(=O)c5ccccc45)c3)nc2c1 = ?
197

* * *

assay: AUC (0 to t) in Sprague-Dawley rat at 1 mg/kg, iv; type: ADME, organism-based; design: dose 1 mg/kg, route iv; conditions: in vivo
reported-endpoint: AUC(0-t) (ng·h/mL)
Quick reminder: number only, in ng·h/mL, skip the unit.

Fill in: AUC(0-t) of COc1cc(OC)c2c(=O)[nH]c(-c3cccc(Cc4n[nH]c(=O)c5ccccc45)c3)nc2c1 is ___
629

* * *

target: Bromodomain-containing protein 4 (Homo sapiens, UniProt O60885); test: Inhibition of BRD4 (unknown origin)
reported-endpoint: pIC50
Value format note: pIC50 is -log10 of concentration (mol/L); just state the number.

Fill in the blank: the reported pIC50 of COc1cc(OC)c2c(=O)[nH]c(-c3cccc(Cc4n[nH]c(=O)c5ccccc45)c3)nc2c1 is ____.
6.62

* * *

biological target: Bromodomain-containing protein 4 (Homo sapiens); assay: Inhibition of BRD4 (unknown origin) at 1 uM relative to control
# maps each entry to its inhibition
Your answer is read as %, so omit the unit and give the number.

Give the measured inhibition of O=c1[nH]nc(Cc2ccc(F)c(-c3nc4cccc(Cl)c4c(=O)[nH]3)c2)c2ccccc12 .
40.9

State the recorded inhibition for this entry: COc1ccc2nc(-c3ccc(Cc4n[nH]c(=O)c5ccccc45)cc3)[nH]c(=O)c2c1
45.5

I have this compound here, O=c1[nH]c(-c2cc(Cc3n[nH]c(=O)c4ccccc34)ccc2F)nc2ccc(Br)cc12 , and I need its recorded inhibition.
39.5

Which inhibition value belongs to COc1cc(-c2nc3ccc(Cl)cc3c(=O)[nH]2)ccc1Cc1n[nH]c(=O)c2ccccc12 ?
45.8

* * *

experiment: Cmax in Sprague-Dawley rat at 10 mg/kg, po; format: ADME, organism-based; parameters: dose 10 mg/kg, route po; settings: in vivo
reported-endpoint: Cmax (ng/mL)
Your answer should be a plain number; it is taken to be in ng/mL.

Given the compound COc1cc(OC)c2c(=O)[nH]c(-c3cccc(Cc4n[nH]c(=O)c5ccccc45)c3)nc2c1 , what is its reported Cmax?
242

* * *

assay: Oral bioavailability in Sprague-Dawley rat at 10 mg/kg; format: ADME, organism-based; conditions: in vivo
reported-endpoint: bioavailability
Be sure to follow the number with its unit.

Param item = COc1cc(OC)c2c(=O)[nH]c(-c3cccc(Cc4n[nH]c(=O)c5ccccc45)c3)nc2c1 ; retrieve measured bioavailability.
23.8%

* * *

target: Bromodomain-containing protein 4 (Homo sapiens, UniProt O60885); test: Inhibition of BRD4 BD2 (unknown origin)
reported-endpoint: pIC50
Please treat pIC50 as minus the base-10 logarithm of the molar concentration.

I have this compound here, COc1cc(OC)c2c(=O)[nH]c(-c3cccc(Cc4n[nH]c(=O)c5ccccc45)c3)nc2c1 , and I need its recorded pIC50.
6.76

* * *

target: Poly [ADP-ribose] polymerase 1 (Homo sapiens, UniProt P09874); experiment: Inhibition of PARP1 (unknown origin) at 1 uM relative to control
Sequence (P09874 whole entry): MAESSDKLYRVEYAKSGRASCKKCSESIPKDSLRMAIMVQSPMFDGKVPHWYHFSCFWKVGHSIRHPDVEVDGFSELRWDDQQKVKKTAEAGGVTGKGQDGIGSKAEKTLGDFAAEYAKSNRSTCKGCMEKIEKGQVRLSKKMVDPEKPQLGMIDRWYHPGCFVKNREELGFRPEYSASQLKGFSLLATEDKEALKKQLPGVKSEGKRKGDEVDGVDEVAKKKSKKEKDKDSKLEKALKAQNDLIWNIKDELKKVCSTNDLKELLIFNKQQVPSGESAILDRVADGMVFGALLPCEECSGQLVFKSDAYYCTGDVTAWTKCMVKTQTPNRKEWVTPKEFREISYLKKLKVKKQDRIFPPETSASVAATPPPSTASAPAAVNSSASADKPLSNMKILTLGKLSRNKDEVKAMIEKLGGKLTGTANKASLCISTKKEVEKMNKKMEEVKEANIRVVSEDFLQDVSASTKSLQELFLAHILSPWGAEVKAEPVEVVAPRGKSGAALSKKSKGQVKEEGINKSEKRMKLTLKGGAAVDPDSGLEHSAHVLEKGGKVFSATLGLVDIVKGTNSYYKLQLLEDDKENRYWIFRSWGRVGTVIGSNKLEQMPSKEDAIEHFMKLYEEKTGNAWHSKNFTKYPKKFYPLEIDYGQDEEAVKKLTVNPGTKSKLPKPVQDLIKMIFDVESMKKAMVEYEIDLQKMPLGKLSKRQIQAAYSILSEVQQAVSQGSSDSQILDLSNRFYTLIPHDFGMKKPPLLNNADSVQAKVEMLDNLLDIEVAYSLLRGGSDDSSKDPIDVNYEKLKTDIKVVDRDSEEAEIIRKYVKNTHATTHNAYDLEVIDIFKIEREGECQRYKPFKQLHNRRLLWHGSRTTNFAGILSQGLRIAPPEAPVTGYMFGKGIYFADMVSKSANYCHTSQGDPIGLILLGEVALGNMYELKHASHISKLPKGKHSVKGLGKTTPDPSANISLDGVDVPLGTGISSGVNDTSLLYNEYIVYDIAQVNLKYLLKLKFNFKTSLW
Decision: inhibition >= 50% yields class 1, all other cases yield class 0.

COc1ccc2nc(-c3ccc(Cc4n[nH]c(=O)c5ccccc45)cc3)[nH]c(=O)c2c1 ... class 1
O=c1[nH]nc(Cc2ccc(F)c(-c3nc4cccc(Cl)c4c(=O)[nH]3)c2)c2ccccc12 ... class 1
COc1cc(-c2nc3ccccc3c(=O)[nH]2)ccc1Cc1n[nH]c(=O)c2ccccc12 ... class 0
COc1ccc2nc(-c3ccc(Cc4n[nH]c(=O)c5ccccc45)c(OC)c3)[nH]c(=O)c2c1 ... class 0
Cc1cccc2c(=O)[nH]c(-c3cc(Cc4n[nH]c(=O)c5ccccc45)ccc3F)nc12 ... class 1

Identify whether the reported inhibition of the following molecule is 50% or greater: COc1cc(OC)c2c(=O)[nH]c(-c3cccc(Cc4n[nH]c(=O)c5ccccc45)c3)nc2c1
class 1

Is inhibition at least 50%? Consider Cc1cc(-c2nc3ccccc3c(=O)[nH]2)ccc1Cc1n[nH]c(=O)c2ccccc12
class 0

Record COc1cc(-c2nc3cccc(C)c3c(=O)[nH]2)ccc1Cc1n[nH]c(=O)c2ccccc12 ; criterion: inhibition no lower than 50%. Met?
class 0

Please indicate if the recorded inhibition for O=c1[nH]c(-c2cc(Cc3n[nH]c(=O)c4ccccc34)ccc2F)nc2ccccc12 meets or exceeds 50%.
class 1

Has O=c1[nH]c(-c2ccc(Cc3n[nH]c(=O)c4ccccc34)c(F)c2)nc2ccccc12 a recorded inhibition greater than or equal to 50%?
class 0

* * *

target: Poly [ADP-ribose] polymerase 1 (Homo sapiens, UniProt P09874); assay: Inhibition of PARP1 (unknown origin) at 1 uM relative to control
Grouping rule (inhibition): c1 (below 50%), c2 (50% to below 70%), c3 (70% or more)

# example entries with known answers
O=c1[nH]c(-c2ccc(Cc3n[nH]c(=O)c4ccccc34)c(F)c2)nc2ccc(F)cc12 ... c1
O=c1[nH]c(-c2cc(Cc3n[nH]c(=O)c4ccccc34)ccc2F)nc2ccc(Br)cc12 ... c3
O=c1[nH]c(-c2cccc(Cc3n[nH]c(=O)c4ccccc34)c2)nc2ccc(F)cc12 ... c3
COc1cc(-c2nc3ccc(F)cc3c(=O)[nH]2)ccc1Cc1n[nH]c(=O)c2ccccc12 ... c1
COc1cc(OC)c2c(=O)[nH]c(-c3ccc(Cc4n[nH]c(=O)c5ccccc45)c(OC)c3)nc2c1 ... c1
O=c1[nH]c(-c2cc(F)cc(Cc3n[nH]c(=O)c4ccccc34)c2)nc2ccc(F)cc12 ... c3
O=c1[nH]nc(Cc2ccc(-c3nc4cccc(Cl)c4c(=O)[nH]3)cc2F)c2ccccc12 ... c1
COc1cc(OC)c2nc(-c3ccc(Cc4n[nH]c(=O)c5ccccc45)c(C)c3)[nH]c(=O)c2c1 ... c2

# classify by inhibition band: COc1cc(-c2nc3ccc(Cl)cc3c(=O)[nH]2)ccc1Cc1n[nH]c(=O)c2ccccc12
c1

* * *

molecular target: Bromodomain-containing protein 4 (Homo sapiens, UniProt O60885); experiment: Inhibition of BRD4 (unknown origin) at 1 uM relative to control
The reader will find reported inhibition values listed item by item below.
The answer is to be given in %; state only the numeric part.

Here are 2 compounds together with their reported answers.
O=c1[nH]nc(Cc2ccc(-c3nc4cccc(Cl)c4c(=O)[nH]3)cc2)c2ccccc12 ... 48.9
COc1cc(OC)c2c(=O)[nH]c(-c3ccc(Cc4n[nH]c(=O)c5ccccc45)c(OC)c3)nc2c1 ... 51

What value of measured inhibition is listed for Cc1cccc2nc(-c3cccc(Cc4n[nH]c(=O)c5ccccc45)c3)[nH]c(=O)c12 ?
49.6
